# credit: patent US7342027B2

# target.or.test.system: Cathepsin C (Sigma, C8511) (Bos taurus)
# Construct: purchased Sigma C8511
# Sequence (Q3ZCJ8 25-463): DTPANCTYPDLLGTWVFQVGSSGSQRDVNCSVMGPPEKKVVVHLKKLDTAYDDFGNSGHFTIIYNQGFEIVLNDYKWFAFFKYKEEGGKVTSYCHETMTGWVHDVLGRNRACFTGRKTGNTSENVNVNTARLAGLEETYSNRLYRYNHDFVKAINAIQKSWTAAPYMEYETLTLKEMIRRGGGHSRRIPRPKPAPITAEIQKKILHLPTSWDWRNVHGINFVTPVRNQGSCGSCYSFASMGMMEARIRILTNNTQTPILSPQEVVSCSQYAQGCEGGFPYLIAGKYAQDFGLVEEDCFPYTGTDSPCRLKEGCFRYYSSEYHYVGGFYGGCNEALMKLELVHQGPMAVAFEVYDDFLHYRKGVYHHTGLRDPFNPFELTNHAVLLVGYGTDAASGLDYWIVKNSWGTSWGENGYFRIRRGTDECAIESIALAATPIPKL
# measurement.notes: Selectivity study: cathepsin C (Gly-Phe-pNA)
# Type: biochemical
# measurement.setup: 1 hour at 37° C., read-out: Cathepsins (IC50, nM) C
Recorded IC50 by entry

O=C(NC1(C(=O)NC2CCN(c3ccccc3-n3cccc3)CC2=O)CCCCC1)c1cc2ccccc2o1 (centres unmarked) | > 1000 nM
CNC(=O)c1ccccc1N1CCC(NC(=O)C2(NC(=O)c3cc4ccccc4o3)CCCCC2)C(=O)C1 (centres unmarked) | > 1000 nM
CS(=O)(=O)c1ccccc1N1CCC(NC(=O)C2(NC(=O)c3cc4ccccc4o3)CCCCC2)C(=O)C1 (centres unmarked) | 382 nM
CS(=O)(=O)c1cc(F)ccc1N1CCC(NC(=O)C2(NC(=O)c3ccc(F)cc3)CCCCC2)C(=O)C1 (centres unmarked) | > 1000 nM

Form field IC50, entry CS(=O)(=O)c1cc(F)ccc1N1CCC(NC(=O)C2(NC(=O)c3ccco3)CCCCC2)C(=O)C1 (centres unmarked) : > 810 nM

The compound identified as O=C(NC1(C(=O)NC2CCN(c3ccccc3N3CCCC3=O)CC2=O)CCCCC1)c1cc2ccccc2o1 (centres unmarked) registered its IC50 at 394 nM

Reported IC50 of O=C(NC1(C(=O)NC2CCN(c3ccccc3N3CC=CC3)CC2=O)CCCCC1)c1cc2ccccc2o1 (centres unmarked) : > 1000 nM

Given item CS(=O)(=O)c1ccccc1N1CCC(NC(=O)C2(NC(=O)c3ccco3)CCCCC2)C(=O)C1 (centres unmarked) , the value recorded as its IC50 is > 2460 nM

* * *

# target.or.test.system: Recombinant human cathepsin K (Homo sapiens, UniProt P43235)
# measurement.notes: Inhibition of cathepsin K activity (Z-Phe-Arg-AMC fluorescence assay)
# measurement.setup: 25 uM Z-Phe-Arg-AMC, pH 5.5, 1 hour at 37° C.
pIC50: −log10 of the molar value.
measured.attribute: pIC50

Take a look at these entries with their results.
O=C(CCCCl)Nc1ccccc1N1CCC(NC(=O)C2(NC(=O)c3cc4ccccc4o3)CCCCC2)C(=O)C1 (stereo not shown) | 8.92
Cc1cc(C(=O)NC2(C(=O)NC3CCN(c4ccccc4S(C)(=O)=O)CC3=O)CCCCC2)no1 (stereo not shown) | 7.70

(a) CC(C)(C)OC(=O)c1ccccc1N1CCC(NC(=O)C2(NC(=O)c3cc4ccccc4o3)CCCCC2)C(=O)C1 (stereo not shown)
(b) CSc1ccccc1N1CCC(NC(=O)C2(NC(=O)c3cc4ccccc4o3)CCCCC2)C(=O)C1 (stereo not shown)
Decide: a or b , by lowest recorded pIC50. Answer by stating the label of the chosen item. a
(a: 8.42, b: 8.67)

* * *

# target.or.test.system: Recombinant human cathepsin K (Homo sapiens, UniProt P43235)
# Sequence (P43235 115-329): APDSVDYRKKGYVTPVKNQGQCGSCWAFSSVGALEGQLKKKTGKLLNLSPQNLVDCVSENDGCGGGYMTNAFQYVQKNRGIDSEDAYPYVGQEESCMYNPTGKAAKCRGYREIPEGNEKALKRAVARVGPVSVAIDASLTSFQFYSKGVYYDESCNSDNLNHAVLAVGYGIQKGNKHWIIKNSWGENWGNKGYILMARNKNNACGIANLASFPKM
# measurement.notes: Inhibition of cathepsin K activity (Z-Phe-Arg-AMC fluorescence assay)
# measurement.setup: 25 uM Z-Phe-Arg-AMC, pH 5.5, 1 hour at 37° C.
Structures can show the parent of a compound that is named as a salt.
measured.attribute: IC50 (nM)

Worked set:
O=C(NC1(C(=O)NC2CCN(c3ccccc3N3CCCCC3=O)CC2=O)CCCCC1)c1cc2ccccc2o1 (stereo not shown) [Example 45] | 6.8
CC(C)(C)OC(=O)c1ccccc1N1CCC(NC(=O)C2(NC(=O)c3cc4ccccc4s3)CCCCC2)C(=O)C1 (stereo not shown) [Example 129] | 0.45
CS(=O)(=O)c1ccccc1N1CCC(NC(=O)C2(NC(=O)c3ccc(OCCN4CCCCC4)cc3)CCCCC2)C(=O)C1 (stereo not shown) [Example 160, hydrochloride] | 3.14
CCSc1ccccc1N1CCC(NC(=O)C2(NC(=O)c3cc4ccccc4o3)CCCCC2)C(=O)C1 (stereo not shown) [Example 42] | 3.87

(P) C[S+]([O-])c1ccccc1N1CCC(NC(=O)C2(NC(=O)c3cc4ccccc4o3)CCCCC2)C(=O)C1 (stereo not shown) [Example 68]
(Q) CS(=O)(=O)c1ccccc1N1CCC(NC(=O)C2(NC(=O)c3cc4cc(OCCN5CCOCC5)ccc4o3)CCCCC2)C(=O)C1 (stereo not shown) [Example 161]
(R) O=C(NC1(C(=O)NC2CCN(c3ccccc3-n3cnnn3)CC2=O)CCCCC1)c1cc2ccccc2o1 (stereo not shown) [Example 58]
Rank by IC50 (largest to smallest). Form entry: labels listed in requested order. R, P, Q
(R: 4.82 nM, P: 3.12 nM, Q: 0.41 nM)
